# Lookup of reported CYP4503A4 mRNA fold increase at 10 μM keyed by entry
System: CYP4503A4
Assay: CYP4503A4 metabolic induction (mRNA expression) in human cryopreserved platable hepatocytes
Type: in vitro ADME
Conditions: 10 μM test compound, two days treatment, mRNA by QuantiGene Plex 2.0
Protocol: In Vitro Evaluation of Test Compounds for CYP4503A4 Metabolic Induction Using Human Liver Hepatocytes. CYP induction assessment was performed using human cryopreserved platable hepatocytes. Test compound was assessed at three or six different concentrations in duplicate. […] Cell monolayers were assessed for test compound cytotoxicity by an adenosine triphosphate (ATP) content assay in a separate plate. […]
Response body: numeric value in fold, unit text excluded.

What the record says about O=C(NCC(c1scnc1C(F)F)N1CCC(Oc2nccc(Cl)n2)CC1)c1c(F)cccc1Cl (stereo not shown) [Example 75] : CYP4503A4 mRNA fold increase at 10 μM is 2.2

What the record says about Cc1ccc(OCC2CCN(C(CNC(=O)c3c(F)cccc3Cl)c3scnc3C(F)F)CC2)nn1 (stereo not shown) [Example 101] : CYP4503A4 mRNA fold increase at 10 μM is 3.9

What the record says about O=C(NCC(c1scnc1C(F)F)N1CCC(COc2ccnc(F)c2)CC1)c1c(F)cccc1Cl (stereo not shown) [Example 125] : CYP4503A4 mRNA fold increase at 10 μM is 5.5

What the record says about O=C(NCC(c1scnc1C(F)F)N1CCC(Oc2cc(F)ccn2)CC1)c1c(F)cccc1Cl (stereo not shown) [Example 81] : CYP4503A4 mRNA fold increase at 10 μM is 4.8

What the record says about O=C(NCC(c1scnc1C(F)F)N1CCC(Oc2ccnc3cccnc23)CC1)c1c(F)cccc1Cl (stereo not shown) [Example 48] : CYP4503A4 mRNA fold increase at 10 μM is 7.6

What the record says about O=C(NCC(c1scnc1C(F)F)N1CCC(COc2nc(C3CC3)ns2)CC1)c1c(F)cccc1Cl (stereo not shown) [Example 87] : CYP4503A4 mRNA fold increase at 10 μM is 6.4

What the record says about O=C(NCC(c1scnc1C(F)F)N1CCC(Oc2ccncc2)CC1)c1c(F)cccc1Cl (stereo not shown) [Example 3] : CYP4503A4 mRNA fold increase at 10 μM is 4.4

What the record says about O=C(NCC(c1scnc1C(F)F)N1CCC(Oc2cncc(Cl)n2)CC1)c1c(F)cccc1Cl (stereo not shown) [Example 76] : CYP4503A4 mRNA fold increase at 10 μM is 5.1

What the record says about Cc1nsc(OC2CCN(C(CNC(=O)c3c(F)cccc3Cl)c3scnc3C(F)F)CC2)n1 (stereo not shown) [Example 11] : CYP4503A4 mRNA fold increase at 10 μM is 7.9

What the record says about O=C(NCC(c1scnc1C(F)F)N1CCC(Oc2ccncn2)CC1)c1c(F)cccc1Cl (stereo not shown) [Example 78] : CYP4503A4 mRNA fold increase at 10 μM is 3.6

What the record says about O=C(NCC(c1scnc1C(F)F)N1CCC(Oc2cncc(F)c2)CC1)c1c(F)cccc1Cl (stereo not shown) [Example 5] : CYP4503A4 mRNA fold increase at 10 μM is 5.0

What the record says about Cc1cc(OC2CCN(C(CNC(=O)c3c(F)cccc3Cl)c3scnc3C(F)F)CC2)ccn1 (stereo not shown) [Example 73] : CYP4503A4 mRNA fold increase at 10 μM is 2.4

What the record says about O=C(NCC(c1scnc1C(F)F)N1CCC(Oc2cncc3nncn23)CC1)c1c(F)cccc1Cl (stereo not shown) [Example 45] : CYP4503A4 mRNA fold increase at 10 μM is 1.9

What the record says about N#Cc1cc(OCC2CCN(C(CNC(=O)c3c(F)cccc3Cl)c3scnc3C(F)F)CC2)ccn1 (stereo not shown) [Example 110] : CYP4503A4 mRNA fold increase at 10 μM is 6.5

What the record says about O=C(NCC(c1scnc1C(F)F)N1CCC(COc2ccc(F)nn2)CC1)c1c(F)cccc1Cl (stereo not shown) [Example 104] : CYP4503A4 mRNA fold increase at 10 μM is 7.4

What the record says about O=C(NCC(c1scnc1C(F)F)N1CCC(COc2nccnc2F)CC1)c1c(F)cccc1Cl (stereo not shown) [Example 106] : CYP4503A4 mRNA fold increase at 10 μM is 4.9
